test system: PPARg DBDmut:RXRa IVT, anti-PPARg (DBD mutation: PPARg1 K132A/R137A, NR concentration 270 nM, RXRa partner concentration 90 nM); assay: PBM binding z-score (relative to random genomic background probes); higher = stronger binding; sequences stand for … in GC…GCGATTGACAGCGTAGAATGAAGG
Threshold check on PBM binding z-score: at or above 0.2 gives class 1, strictly below gives class 0.

INSERT INTO assay_data (construct_sequence, group_label) VALUES
  ('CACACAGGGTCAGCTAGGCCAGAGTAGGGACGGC', 'class 1');

Reported PBM binding z-score reaches at least 0.2 for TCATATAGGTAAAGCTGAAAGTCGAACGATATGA ?
class 1

Can ACTAGCAGGCCAAGTTTGGGTCACTCTAACAAAG be said to have PBM binding z-score at or above 0.2?
class 0

Exam item: decide whether the reported PBM binding z-score for AATACAGGGGCATCGTAGGCCAGAGTACGCACAG is at least 0.2.
class 0

Does CGTCCAAGGTCAATGCTAGGTCAGTAAAAGCATT have a reported PBM binding z-score of at least 0.2?
class 0

Does PBM binding z-score meet or surpass 0.2 for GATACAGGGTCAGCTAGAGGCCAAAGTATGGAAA ?
class 1

Threshold query (PBM binding z-score >= 0.2) on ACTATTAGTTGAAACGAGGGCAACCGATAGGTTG
class 1
